All values here come from ChEMBL document CHEMBL5058648.

Molecular target: Sigma intracellular receptor 2 (Homo sapiens, UniProt Q5BJF2)
Sequence (Q5BJF2 whole entry): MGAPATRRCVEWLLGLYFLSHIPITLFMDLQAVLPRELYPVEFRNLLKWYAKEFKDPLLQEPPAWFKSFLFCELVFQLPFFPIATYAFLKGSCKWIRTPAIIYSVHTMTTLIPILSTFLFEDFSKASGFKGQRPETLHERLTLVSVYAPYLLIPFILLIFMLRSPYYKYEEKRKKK
Test: GPCRScan assay: inhibition of Sigma 2
Hi there, I'd appreciate the recorded pKi for every entry that follows.
Give bare numbers, as −log10 of the molar value.

Chemical String	pKi
COc1ccc(CC[C@@H](OC(=O)[C@@H]2CCCCN2C(=O)[C@H](c2cc(OC)c(OC)c(OC)c2)C2CCCCC2)c2cccc(OCCN3CCOCC3)c2)cc1OC	6.65

Please examine the following record next.
Tested on Sigma intracellular receptor 2 (Homo sapiens, UniProt Q5BJF2), the item COc1ccc(CC[C@@H](OC(=O)[C@H]2CCCCN2C(=O)[C@@H](c2cc(OC)c(OC)c(OC)c2)C2CCCCC2)c2cccc(OCCN3CCOCC3)c2)cc1OC showed pKi equal to 6.39
